Cited source for all entries: PubChem BioAssay

assay: reduction of polyQ htt aggregates in cells – imaging, exon1htt(103Q)mCFP cells, high-content imaging, primary screen (AID 483); details: exon1htt(103Q)mCFP cell line, aggregate imaging, at 2 µM; active compounds read high;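 note: compound exposure lasted 3 days before fixation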
property label: inhibition of aggregation (%)

1. Nc1sccc1C(=O)c1ccccc1; 5.8
2. O=C(Nc1nnc(C2CCCCC2)s1)c1cccs1; -2.9
3. O=C(c1cc2nc(-c3ccco3)cc(C(F)(F)F)n2n1)N1CCN(c2ccccn2)CC1; 2.8
4. CCc1cc2c(NCCC(=O)O)nc(C)nc2s1; 13.8
5. COCCOC(=O)C1=C(C)OC(N)=C(C#N)C1c1ccc2c(c1)OCO2 (stereo not drawn); 12.6
6. COc1ccc(CCNc2oc(-c3ccco3)nc2C#N)cc1; 0.7
7. CC(C)(C)n1nnnc1C(c1cccs1)N1CCN(Cc2ccccc2)CC1 (stereo not drawn); 0
8. CC(CN1CCCCC1)OC(=O)c1ccc2c(c1)OCO2 (stereo not drawn); 27.4
9. COc1ccc(CN(C(=O)CN2C(=O)COc3ccccc32)C2CCCC2)c(OC)c1; -4.6
10. O=C(Cn1c(=O)[nH]c2ccsc2c1=O)N1CCN(c2ccc(F)cc2)CC1; -0.5
11. CC1CC(C)CN(c2nc3c(c(=O)[nH]c(=O)n3C)n2CCCSc2nc3ccccc3s2)C1 (stereo not drawn); 33.6
12. O=C(CSc1nnc(-c2ccc(Br)cc2)n1C1CCCCC1)N1CCCC1; 5.3
13. Nc1cc(N)nc(SCc2ccccc2)n1; 6.6
14. c1ccc(CNc2ccc3c(c2)ncn3C2CCCCC2)nc1; 20
15. CCOC(=O)c1[nH]c2ccc(C)cc2c1N=C(C)N(C)C; -6.9
16. CCOC(=O)C1CCCN(C(=O)c2cc(=O)c3ccccc3o2)C1 (stereo not drawn); -28.1
17. Cc1c(NS(=O)(=O)c2ccc3c(c2)c(=O)n(C)c(=O)n3C)c(=O)n(-c2ccccc2)n1C; -4.4
18. O=C(CC1Oc2ccccc2NC1=O)NCCCN1CCOCC1 (stereo not drawn); -1.6
19. COCCNC(=O)c1ccc(CS(=O)(=O)c2ccc(OC)cc2)o1; -4.8
20. Cn1c(SCC(=O)Nc2ccc(F)cc2)nnc1-c1cccnc1; 5.2
21. CCC(=O)OC1(C#CCOc2ccc(OC)cc2)CCN(C)CC1; -20.2
22. CSc1nsc(SCC(=O)N2CCc3ccccc32)n1; 22.6
23. CC(C)COc1ccc(-c2nnn(CC(=O)N3CCCC3)n2)cc1; -13.3
24. O=C(Nc1c(C(=O)NCc2ccco2)cnn1-c1ccccc1)c1ccc(F)cc1; 12.1
25. CCc1nnc(NC(=O)CCC(=O)Nc2ccccc2)s1; -10.2
26. Cc1noc(C)c1C(=O)N1CCN(C(=O)c2sc3cc(Cl)ccc3c2Cl)CC1; 0.7
27. CCC1c2ccc(C)n2CCN1C(=O)Nc1ccccc1OC (stereo not drawn); 0.1
28. c1cncc(C2Nc3ccccc3-c3nc4ccccc4n32)c1 (stereo not drawn); 2.7
